TARGET_OR_SYSTEM: erythrocytes infected with P. falciparum field isolate 11014
EXPERIMENT: flow cytometry, staining of IEs
ASSAY_METRIC: % parasite recognition (%)
Numbers only, in %.

Record MGC26 (antibody) VH: EVQLVDSGGGLVQPGGSLRLSCAASGFTFSTYWMTWVRQTPGKGLEWVASIKQDGTERYYVDSVKGRFIISRDNAKNSLYLQMHSLRAEDTAVYYCVRDRFCRDHMHIEEDLPRPSISPEPATVIPLGSHVTIVCRGPVGVETFRLQKESRSLYNDTEDVSQPSPSESEARFRIDSVSEGHGGLYRCLYYKSSKWSEQSDYLEMLVKGEDVTWALFPYCGGDGEESDYYMDVWGKGTTVTVSS VL: DIQLTQSPSTLSASVGDRVTISCRASQRLSRSLAWYQQRPRKAPNLLIYKASPLEIGGPSRFTGSGSGTEFTLTISSLQPDDSATYYCQQYSNYSYSFGQGTKLEIR . Reported % parasite recognition: 5.4

Entry source: patent US20180186897A1
